- System: primary rat microglia
- statedConditions: rat
A collection of molecules and their measured Fibrin % cell toxicity
Dear colleague, please return just the value in %, with no unit written.

Known Fibrin % cell toxicity results, listed for orientation:
{"molecule": "CN(C/C=C/c1ccccc1)Cc1cccc2ccccc12 [Naftifine]", "outputUnit": "%", "Fibrin % cell toxicity": 0}
{"molecule": "CC(C)NCC(O)c1ccc(O)c(O)c1 (stereo not shown) [Isoprenaline]", "outputUnit": "%", "Fibrin % cell toxicity": 0}
{"molecule": "CN(C)/N=N/c1[nH]cnc1C(N)=O [Dacarbazine]", "outputUnit": "%", "Fibrin % cell toxicity": 0}
{"molecule": "CN1CCN(CC(=O)N2c3ccccc3C(=O)Nc3cccnc32)CC1 [Pirenzepine]", "outputUnit": "%", "Fibrin % cell toxicity": 0}
{"molecule": "COc1cc(Cc2cnc(N)nc2N)cc(OC)c1OC [Trimethoprim]", "outputUnit": "%", "Fibrin % cell toxicity": 0}

Data request: So what's the measured Fibrin % cell toxicity for this one? Cc1cc(=O)oc2cc(O)ccc12 [7-hydroxy-4-methyl-2H-chromen-2-one]
Data returned: 0

Data request: Return reported Fibrin % cell toxicity; argument: Clc1ccc2c(c1)C(N1CCNCC1)=Nc1ccccc1O2 [Amoxapine, reference compound]
Data returned: 0

Data request: Entry Fc1ccc(C(c2ccc(F)cc2)N2CCN(C/C=C/c3ccccc3)CC2)cc1 [Flunarizine] has what Fibrin % cell toxicity?
Data returned: 1

====

- Tested on: LPS-induced microglia activation
- methodNotes: Image-based assay of LPS-induced microglia activation (HTS and dose response)
- Format: cell-based, rat
- statedConditions: Rattus norvegicus, Microglia, read-out: LPS IC50 (uM)
Where a name gives a salt, the structure may show the parent alone.
propertyMeasured: IC50

Data request: Fill in the blank: the reported IC50 of COc1ccc(O)cc1 [Mequinol, reference compound] is ____.
Data returned: > 20 µM

Data request: Which IC50 reading was recorded for the compound COc1ccc(OC)c(C(O)CNC(=O)CN)c1 (stereo not drawn) [Midodrine hydrochloride, reference compound] ?
Data returned: > 20 µM

Data request: I'd like to know its IC50. The compound in question is NC(=O)c1ncn([C@@H]2O[C@H](CO)[C@@H](O)[C@H]2O)n1 [Ribavirin, reference compound]
Data returned: 2 µM

====

- Tested on: primary rat microglia
- statedConditions: rat
Structures can show the parent of a compound that is named as a salt.
propertyMeasured: Fibrin % cell toxicity (%)
Number in %, nothing else.

{"compound": "CC(=O)Nc1nnc(S(N)(=O)=O)s1 [Acetazolamide]", "propertyMeasured": "Fibrin % cell toxicity", "measuredNumber": 0}
{"compound": "N[C@@H](Cc1ccc(N(CCCl)CCCl)cc1)C(=O)O [Melphalan]", "propertyMeasured": "Fibrin % cell toxicity", "measuredNumber": 0}
{"compound": "C=C1CC[C@H](O)C/C1=C/C=C1\\CCC[C@]2(C)[C@@H]([C@H](C)/C=C/[C@H](C)C(C)C)CC[C@@H]12 [Ergocalciferol]", "propertyMeasured": "Fibrin % cell toxicity", "measuredNumber": 1}

Data request: Look at this compound and give its reported Fibrin % cell toxicity. Nc1ccn([C@@H]2O[C@H](CO)[C@@H](O)[C@@H]2O)c(=O)n1 [Cytarabine]
Data returned: 0

Data request: Consider the compound shown here: O=C1CC2(CCCC2)CC(=O)N1CCCCN1CCN(c2ncccn2)CC1 [Buspirone] What is its recorded Fibrin % cell toxicity?
Data returned: 0

Data request: If you can, please state the reported Fibrin % cell toxicity value of CC(=O)c1ccc(S(=O)(=O)NC(=O)NC2CCCCC2)cc1 [Acetohexamide] .
Data returned: 1

Data request: Need Fibrin % cell toxicity of CC12CCC(CC1)C(C)(C)O2 [Eucalyptol] , thanks.
Data returned: 0

Data request: Which value of Fibrin % cell toxicity has been reported for COC(=O)C(c1ccccc1)C1CCCCN1 (stereo not shown) [Methylphenidate hydrochloride, reference compound] in the records?
Data returned: 2

Data request: Query (compound): CC(C)(S)[C@@H](N)C(=O)O [Penicillamine] ; field requested: Fibrin % cell toxicity
Data returned: 0

Data request: Which Fibrin % cell toxicity value belongs to COC1=C(OC)C(=O)C(CCCCCCCCCCO)=C(C)C1=O [Idebenone] ?
Data returned: 1

Data request: What value of measured Fibrin % cell toxicity is listed for CN(C)CCCN1c2ccccc2CCc2ccc(Cl)cc21 [Clomipramine] ?
Data returned: 1

Data request: Need Fibrin % cell toxicity of CC(=O)OC1CC2CCC1(C)C2(C)C (stereo not shown) [Bornyl Acetate] , thanks.
Data returned: 0

Data request: Data request, read-out Fibrin % cell toxicity, for CCc1cccc2c3c([nH]c12)C(CC)(CC(=O)O)OCC3 (stereo not shown) [Etodolac]
Data returned: 0

Data request: Fibrin % cell toxicity lookup needed for CCCC(CCC)C(=O)O [Valproic Acid] , thanks.
Data returned: 0

Data request: Fill blank: measured Fibrin % cell toxicity of the compound CC[C@H]1OC(=O)[C@H](C)[C@@H](O[C@H]2C[C@@](C)(OC)[C@@H](O)[C@H](C)O2)[C@H](C)[C@@H](O[C@@H]2O[C@H](C)C[C@H](N(C)C)[C@H]2O)[C@](C)(OC)C[C@@H](C)C(=O)[C@H](C)[C@@H](O)[C@]1(C)O [Clarithromycin] is ____.
Data returned: 1

Data request: Which measured Fibrin % cell toxicity value corresponds to Nc1cc(C(Cl)=C(Cl)Cl)c(S(N)(=O)=O)cc1S(N)(=O)=O [Clorsulon] ?
Data returned: 0

Data request: What value of measured Fibrin % cell toxicity is listed for O=c1[nH]c(=O)n([C@H]2C[C@H](O)[C@@H](CO)O2)cc1I [Idoxuridine] ?
Data returned: 1

Data request: Could you share which Fibrin % cell toxicity value was measured for CCCCCOC(=O)Nc1nc(=O)n([C@@H]2O[C@H](C)[C@@H](O)[C@H]2O)cc1F [Capecitabine] ?
Data returned: 1

Data request: What measured Fibrin % cell toxicity goes with NCCNCCNCCN [Triethylenetetramine] ?
Data returned: 1

Data request: If you can, please state the reported Fibrin % cell toxicity value of CCCCCCCCCCCCCCCC[n+]1ccccc1 [Cetylpyridinium Bromide] .
Data returned: 25

====

- System: primary rat microglia
- methodNotes: Cell toxicity (dead cells, size <150 μm2) in LPS assay
- statedConditions: primary microglia HTS, LPS stimulation; decreased size (<150 μm^2) as marker of toxicity
Structures can show the parent of a compound that is named as a salt.
propertyMeasured: LPS % cell toxicity (%)
Entry rule: numbers only, all in %.

Below, 4 molecules whose answers are already recorded.
{"molecule": "CC(=O)OCC(=O)[C@@]1(OC(C)=O)[C@@H](C)C[C@H]2[C@@H]3C[C@H](F)C4=CC(=O)C=C[C@]4(C)[C@@]3(F)[C@@H](O)C[C@@]21C [Diflorasone diacetate, reference compound]", "outputUnit": "%", "measuredNumber": 1}
{"molecule": "CCCCC[C@H](O)/C=C/[C@H]1[C@H](O)CC(=O)[C@@H]1C/C=C\\CCCC(=O)O", "outputUnit": "%", "measuredNumber": 2}
{"molecule": "CC(C)CCCC(C)N (stereo not shown)", "outputUnit": "%", "measuredNumber": 0}
{"molecule": "CCOc1ccc2ccccc2c1C(=O)N[C@@H]1C(=O)N2[C@@H]1SC(C)(C)[C@@H]2C(=O)O [Nafcillin Sodium]", "outputUnit": "%", "measuredNumber": 0}

Data request: Look up LPS % cell toxicity for this molecule: N=C(N)/N=C(\N)N1CCOCC1 [Moroxydine Hydrochloride]
Data returned: 0

Data request: Quick check: LPS % cell toxicity of COC(=O)C1=C(C)NC(C)=C(C(=O)OCCN2CCN(C(c3ccccc3)c3ccccc3)CC2)C1c1cccc([N+](=O)[O-])c1 (stereo not shown) [Manidipine Hydrochloride] ?
Data returned: 1

Data request: Please give the measured LPS % cell toxicity for this molecule: CC[C@H](C)C(=O)O[C@H]1CCC=C2C=C[C@H](C)[C@H](CC[C@@H]3C[C@@H](O)CC(=O)O3)[C@H]21
Data returned: 2

Data request: I would be grateful if you could share the reported LPS % cell toxicity for OC[C@H]1O[C@@H](n2cnc3c(O)ncnc32)[C@H](O)[C@@H]1O .
Data returned: 2

Data request: Reported LPS % cell toxicity for CC(=O)/N=c1/sc(S(N)(=O)=O)nn1C [Methazolamide] : what is it?
Data returned: 0

Data request: # input molecule: O=C(c1cccnc1)N1CCOCC1 ; wanted: its LPS % cell toxicity
Data returned: 0

Data request: What measured LPS % cell toxicity goes with CN(C)CCCN1c2ccccc2Sc2ccccc21 ?
Data returned: 64

Data request: Given c1ccc2c(c1)OCC(C1=NCCN1)O2 (stereo not shown) [Idazoxan hydrochloride, reference compound] , state its recorded LPS % cell toxicity.
Data returned: 0

Data request: Which LPS % cell toxicity value is on record for CN1CCCN=C1COC(=O)C(O)(c1ccccc1)C1CCCCC1 (stereo not shown) ?
Data returned: 0

Data request: LPS % cell toxicity lookup needed for CC(CCc1ccccc1)NC(C)C(O)c1ccc(O)cc1 (stereo not shown) [Nylidrin hydrochloride, reference compound] , thanks.
Data returned: 1

Data request: Item Cc1cc2c(OCC(CNC(C)(C)C)OC(=O)c3ccccc3)cccc2[nH]1 (stereo not shown) has what recorded LPS % cell toxicity?
Data returned: 2

Data request: Fill blank: measured LPS % cell toxicity of the molecule C/C(=C\C(=O)OCCCCCCCCC(=O)O)C[C@@H]1OC[C@H](C[C@@H]2O[C@H]2[C@@H](C)[C@H](C)O)[C@@H](O)[C@H]1O is ____.
Data returned: 0

These entries and their values trace back to patent US20210330611A1.
